Biological target: Bile acid receptor (Homo sapiens) (UniProt Q96RI1)
Sequence (Q96RI1 whole entry, the tested form may be a part): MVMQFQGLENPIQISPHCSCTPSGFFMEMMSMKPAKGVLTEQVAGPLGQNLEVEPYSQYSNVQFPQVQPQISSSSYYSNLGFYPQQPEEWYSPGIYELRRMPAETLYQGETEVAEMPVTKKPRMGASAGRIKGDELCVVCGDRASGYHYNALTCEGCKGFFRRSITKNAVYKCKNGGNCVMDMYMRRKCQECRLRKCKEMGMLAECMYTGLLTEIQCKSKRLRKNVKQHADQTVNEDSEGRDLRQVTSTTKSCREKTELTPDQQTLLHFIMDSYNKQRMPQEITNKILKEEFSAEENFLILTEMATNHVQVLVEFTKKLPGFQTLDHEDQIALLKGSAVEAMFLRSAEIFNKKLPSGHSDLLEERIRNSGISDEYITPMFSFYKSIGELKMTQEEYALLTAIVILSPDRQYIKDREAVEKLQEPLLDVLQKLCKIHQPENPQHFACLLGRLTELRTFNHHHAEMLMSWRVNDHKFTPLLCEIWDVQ
Experiment: Agonist activity at GAL4-fused human FXR LBD expressed in human HepG2 cells up to 2 uM after 20 hrs by luciferase reporter gene assay
Assay type: cell-based
The source made the active and inactive calls. The rule behind the calls is not given here.
readout: Activity

CCC(CC)(c1ccc(OCc2nc(-c3c(Cl)cccc3Cl)oc2C)cc1)c1ccc(OC(C)C(=O)O)cc1 (stereo not drawn) :: inactive
CCC(CC)(c1ccc(OCc2coc(-c3c(Cl)cccc3Cl)n2)cc1)c1ccc(OC(C)C(=O)O)cc1 (stereo not drawn) :: inactive
Cc1oc(-c2ccccc2)nc1COc1ccc(Cc2ccc(OC(C)C(=O)O)cc2)cc1 (stereo not drawn) :: inactive
